Measured IC50 accompanies every entry in the list below.
- ASSAYED TARGET: human CCR2 (Homo sapiens, UniProt P41597)
- Construct: expressed in transfected cells; host or cells: Ba/F3 cells (membranes)
- Sequence (P41597 whole entry): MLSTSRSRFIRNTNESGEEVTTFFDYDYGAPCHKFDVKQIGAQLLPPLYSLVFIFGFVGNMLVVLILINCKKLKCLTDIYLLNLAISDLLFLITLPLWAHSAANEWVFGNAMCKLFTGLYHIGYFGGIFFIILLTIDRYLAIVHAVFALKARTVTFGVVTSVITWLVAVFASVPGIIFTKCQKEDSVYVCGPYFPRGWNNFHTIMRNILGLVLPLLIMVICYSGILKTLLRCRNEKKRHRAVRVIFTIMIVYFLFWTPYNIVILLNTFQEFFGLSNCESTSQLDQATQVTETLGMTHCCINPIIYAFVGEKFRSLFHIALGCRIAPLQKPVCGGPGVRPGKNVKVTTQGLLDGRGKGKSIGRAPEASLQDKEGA
- ASSAY NAME: CCR2 Membrane Binding Assay (SPA radio-ligand binding, 125I-rhMCP-1)
- MEASUREMENT SETUP: membranes from Ba/F3 cells transfected with human CCR2; 0.03 nM 125I-rhMCP-1; class symbols

Guide cases for IC50, answers given:
Exam item: I'd like to know its IC50. The compound in question is O=C(NC1[C@H]2CN(CCN3CCCCCC3)C[C@@H]12)c1cc2c(ccc3cc(-c4ccccc4)oc32)[nH]1 (some centres unmarked) [Compound 19]
Marked response: 51 to 200 nM

Exam item: // next record Cc1cc2ccc3[nH]c(C(=O)NC4CCN(CCN5CCCCCC5)CC4)cc3c2o1 [Compound 5]
Marked response: 51 to 200 nM

Exam item: // next record CC(C)c1cc2ccc3[nH]c(C(=O)N[C@H]4[C@@H]5CN(CCN6CCCCCC6)C[C@@H]54)cc3c2o1 [Compound 3]
Marked response: 51 to 200 nM

New cases:
Exam item: I'd like to know its IC50. The compound in question is O=C(NC1CCN(CCN2CCCCCC2)CC1)c1cc2c(ccc3ccccc32)[nH]1 [Compound 4]
Marked response: 51 to 200 nM

Exam item: // next record CC(C)c1cc2ccc3[nH]c(C(=O)NC4CC45CCN(CCN4CCCCCC4)CC5)cc3c2o1 (centres unmarked) [Compound 15]
Marked response: 51 to 200 nM

Exam item: // next record COc1cccc2[nH]c(C(=O)NC3CCN(CCN4CCCCCC4)CC3)cc12 [Compound 12]
Marked response: 201 to 900 nM

Exam item: // next record COc1cc2[nH]c(C(=O)NC3CCN(CCN4CCCCCC4)CC3)cc2c2ccccc12 [Compound 11]
Marked response: 201 to 900 nM

Exam item: // next record CCOc1cc2[nH]c(C(=O)NC3CCN(CCN4CCCCCC4)CC3)cc2c2ccccc12 [Compound 20]
Marked response: 51 to 200 nM

Exam item: // next record O=C(NC1CCN(CCN2CCCCCC2)CC1)c1cc2c3ccccc3ccc2n1Cc1ccccc1 [Compound 18]
Marked response: 201 to 900 nM

Exam item: // next record O=C(NC1CCN(CCN2CCCCCC2)CC1)c1cc2c3c(c(F)cc2[nH]1)CCO3 [Compound 7]
Marked response: 201 to 900 nM

Exam item: // next record O=C(NC1CCN(CCN2CCCCC2)CC1)c1cc2c(cc(F)c3ccoc32)[nH]1 [Compound 13]
Marked response: 201 to 900 nM

Exam item: // next record O=C(NC1CCN(CCN2CCCCCC2)CC1)c1cc2c(cc(F)c3ccoc32)[nH]1 [Compound 6]
Marked response: 201 to 900 nM

Exam item: // next record Cc1c(C(=O)NC2CCN(CCN3CCCCCC3)CC2)[nH]c2ccc3ccccc3c12 [Compound 8]
Marked response: 201 to 900 nM

Exam item: // next record O=C(NC1CCN(CCN2CCCCCC2)CC1)c1cc2c(cc(F)c3ccccc32)[nH]1 [Compound 9]
Marked response: 51 to 200 nM

----------
- ASSAYED TARGET: human CCR2 (Homo sapiens, UniProt P41597)
- Construct: expressed in transfected cells; host or cells: Ba/F3 cells (membranes)
- ASSAY NAME: CCR2 Membrane Binding Assay (SPA radio-ligand binding, 125I-rhMCP-1)
- MEASUREMENT SETUP: membranes from Ba/F3 cells transfected with human CCR2; 0.03 nM 125I-rhMCP-1; 4 h room temperature
The label T is reserved for IC50 strictly under 10 nM; F covers values equal to or above it.

Exam item: Lab note: IC50 threshold 10 nM. Does this compound come in strictly under it? CC(C)c1cc2ccc3[nH]c(C(=O)NC4CCN(CCN5CCCCCC5)CC4)cc3c2o1 [Compound 2]
Marked response: T

Exam item: // next record CC(C)COc1cc2c(c3[nH]c(C(=O)NC4CCN(CCN5CCCCCC5)CC4)cc13)CCC2 [Compound 16]
Marked response: F

Exam item: // next record O=C(NC1CCN(CCN2CCCCCC2)CC1)c1cc2c(OCc3ccccc3)cccc2[nH]1 [Compound 14]
Marked response: F

Exam item: // next record CC(C)COc1cccc2[nH]c(C(=O)NC3CCN(CCN4CCCCCC4)CC3)cc12 [Compound 10]
Marked response: T

Lab note: next compound to report on.
Exam item: Lab note: IC50 threshold 10 nM. Does this compound come in strictly under it? O=C(NC1CCN(CCN2CCCCCC2)CC1)c1cc2c(ccc3cc(-c4ccccc4)oc32)[nH]1 [Compound 17]
Marked response: F
